Target sequence: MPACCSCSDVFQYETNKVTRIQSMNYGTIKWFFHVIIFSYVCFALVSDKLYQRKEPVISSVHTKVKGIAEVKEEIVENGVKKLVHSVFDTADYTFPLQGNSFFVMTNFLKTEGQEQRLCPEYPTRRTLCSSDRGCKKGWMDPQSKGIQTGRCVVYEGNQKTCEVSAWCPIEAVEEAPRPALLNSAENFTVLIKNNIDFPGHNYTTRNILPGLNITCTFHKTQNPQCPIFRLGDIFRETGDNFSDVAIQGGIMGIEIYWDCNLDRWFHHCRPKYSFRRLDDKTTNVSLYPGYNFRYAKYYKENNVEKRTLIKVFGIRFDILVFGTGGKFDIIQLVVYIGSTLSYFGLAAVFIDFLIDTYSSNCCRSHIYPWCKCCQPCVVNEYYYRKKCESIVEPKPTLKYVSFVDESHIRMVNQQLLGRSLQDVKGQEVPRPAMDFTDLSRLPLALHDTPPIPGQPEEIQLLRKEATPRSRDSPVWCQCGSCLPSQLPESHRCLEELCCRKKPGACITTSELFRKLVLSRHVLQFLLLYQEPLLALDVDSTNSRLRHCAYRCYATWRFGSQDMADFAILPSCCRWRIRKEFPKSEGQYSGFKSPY
recorded_metric: pKi
One number for each entry, as −log10 of the molar value.

Endpoint output: pKi of O=C1NCCn2c1nnc2-c1cnccn1 . Value?
7.20
